Ref: PubChem BioAssay

# System: Neuregulin-1 EGF-like domain
# protocol.details: binders of neuregulin-1 EGF-like domain, primary screen, biochemical, small-molecule microarray, 635 nm fluorescence (AID 1081);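 also: binding of the protein to compounds printed on small-molecule microarray slides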
# setup.conditions: small-molecule microarray binding, higher = more signal
The molecules listed here are annotated with their composite z-score.

- mol.smiles: "COc1ccc([Si](C)(C)[C@@H]2[C@@H](CCO)O[C@]3(C(=O)N(Cc4ccc(N5CCCCC5=O)cc4)c4ccccc43)[C@H]2C)cc1"
  system.tested: "Neuregulin-1 EGF-like domain"
  composite z-score: 1.15
- mol.smiles: "O=C1O[C@@H](c2ccccc2)[C@@H](c2ccccc2)N2[C@@H](c3ccc(OCCO)cc3)[C@]3(C(=O)Nc4ccccc43)[C@@H](C(=O)O)[C@H]12"
  system.tested: "Neuregulin-1 EGF-like domain"
  composite z-score: 1.45
- mol.smiles: "CC(C)[Si](C#CCCCC#N)(O[C@H](c1ccccc1)c1cn([C@H](CO)Cc2ccccc2)nn1)C(C)C"
  system.tested: "Neuregulin-1 EGF-like domain"
  composite z-score: 1.21
- mol.smiles: "NCCCCCCNC(=O)[C@@H]1C[C@@H]2C(=O)N[C@@H](CCCCN)C(=O)N2[C@@H]1c1cccc(OCCO)c1"
  system.tested: "Neuregulin-1 EGF-like domain"
  composite z-score: 1.2

----------
# protocol.details: inhibitors of hydroxyurea-induced Chk1 phosphorylation, primary screen, imaging, HeLa, phospho-Chk1 nuclear intensity (AID 1187); also: test concentration not given here
# setup.conditions: hydroxyurea-induced phospho-Chk1 immunofluorescence imaging, higher = more signal

- compound: "COCCOC(=O)N1C(=O)[C@@]2(c3cc(C#CC4=CCCCC4)ccc31)[C@H](c1ccc(O)cc1)N1[C@H](c3ccccc3)[C@H](c3ccccc3)OC(=O)[C@H]1[C@@H]2C(=O)N1CCN(c2ncccn2)CC1"
  z-score: -0.758
- compound: "OCCCC1=CC(c2ccc(CN3CCCC3)cc2)N(Cc2sc3ccccc3c2Cl)CC1 (configuration not stated)"
  z-score: -0.276
- compound: "CC(=O)NCCCC[C@@H]1NC(=O)[C@H]2C[C@@H](C(=O)NCCCC[N+](C)(C)C)[C@@H](c3cccc(OCCO)c3)N2C1=O"
  z-score: 0.341
- compound: "O=C1O[C@H](c2ccccc2)[C@H](c2ccccc2)N2[C@H]1[C@@H](C(=O)NC[C@H](O)c1ccccc1)[C@]1(C(=O)Nc3ccc(C#CCCO)cc31)[C@H]2c1ccc(OCCO)cc1"
  z-score: -0.821
- compound: "COC(=O)[C@@]1(Cc2ccc(OC)cc2)[C@H]2c3cc(C(=O)N4CCCC4)n(Cc4c(-c5ccccc5)noc4C)c3C[C@H]2CN1C(=O)c1ccccc1"
  z-score: -0.313
- compound: "C=CCC(OC(C)=O)[C@@H]1[C@@H](N(Cc2cccc3ccccc23)C(=O)Cc2ccc(F)cc2)c2cc(OCCCO)ccc2N1C(=O)c1ccc2ccccc2n1 (some centres not stated)"
  z-score: -0.761
- compound: "CCCCCCc1nc(C2CC2)cc2c1[Si](C(C)C)(C(C)C)O[C@H]2c1ccccc1"
  z-score: -0.465

----------
# protocol.details: PSAC antagonists in infected red cells, primary screen, cell-based, P. falciparum Indochina, OD700, 18 h (AID 1157)
# setup.conditions: P. falciparum Indochina infected erythrocytes, osmotic lysis OD700, 18 h; higher = more signal, called active from +8 up or from −8 down
Here the recorded z-score is given for each entry.

- molecule: "COCCOC(=O)N1C(=O)[C@@]2(c3cc(C#CC4=CCCCC4)ccc31)[C@H](C(=O)N1CCCCCCC1)[C@H]1C(=O)O[C@H](c3ccccc3)[C@H](c3ccccc3)N1[C@@H]2c1ccc(O)cc1"
  z-score: -1.96
- molecule: "COc1cc2c(cc1OC)CN(C(=O)[C@@H]1[C@H]3C(=O)O[C@H](c4ccccc4)[C@H](c4ccccc4)N3[C@H](c3ccc(OCCO)cc3)[C@@]13C(=O)Nc1ccc(C#CC4(O)CCCCCC4)cc13)CC2"
  z-score: -1.27
- molecule: "C[N+](C)(C)CCCCCCNC(=O)[C@H]1C[C@H]2C(=O)NCC(=O)N2[C@H]1c1ccc(O)cc1"
  z-score: -0.0189
- molecule: "CCCCCCCCCCC(O)C1C=CC2C(=O)N(C)C(=O)C2N1Nc1ccc([N+](=O)[O-])cc1[N+](=O)[O-] (configuration not stated)"
  z-score: 2.59
- molecule: "CCOC(=O)C1=CC[C@@H](c2cccc(Cl)c2)N(S(=O)(=O)c2ccc(C)cc2)C1"
  z-score: -1.89
- molecule: "C=C(CCCC)/C(=C/C[C@@H](OC(=O)c1ccncc1)c1ccccc1OCCO)c1cnc2ccccc2c1"
  z-score: 1.12
- molecule: "CN(C)C(=O)C1N=C(c2ccc(OCCCO)cc2)N(c2ccccc2)O1 (configuration not stated)"
  z-score: 0.325

----------
# Tested on: Neuregulin-1 EGF-like domain
# protocol.details: binders of neuregulin-1 EGF-like domain, primary screen, biochemical, small-molecule microarray, 635 nm fluorescence (AID 1081);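 also: binding of the protein to compounds printed on small-molecule microarray slides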
# setup.conditions: small-molecule microarray binding, higher = more signal
attribute.measured: composite z-score

- molecule: "C=CCC(OC(C)=O)[C@@H]1[C@@H](N(Cc2ccc(-c3cccc(C(F)(F)F)c3)o2)C(=O)c2ccc(-c3ccccc3)cc2)c2cc(OCCCO)ccc2N1C(=O)c1ccc2ccccc2n1 (some centres not stated)"
  readout.number: -0.385
- molecule: "COCCCNC(=O)[C@]1(CCS(=O)(=O)c2ccccc2)N=C(c2ccc(OCCCO)cc2)O[C@@H]1c1ccccc1N=[N+]=[N-]"
  readout.number: 1.01
- molecule: "COC(=O)[C@@]1(Cc2ccccc2)[C@H]2c3cc(C(=O)N(C)C)n(CCN4CNCC4=O)c3C[C@H]2CN1C(=O)c1ccccc1"
  readout.number: 1.22
- molecule: "COC(=O)[C@@]1(Cc2ccc(OC)cc2)[C@H]2c3cc(C(=O)N4CCCC4)n(Cc4c(-c5ccccc5)noc4C)c3C[C@H]2CN1C(=O)c1ccccc1"
  readout.number: 1.25
- molecule: "COCCCNC(=O)[C@@]1(Sc2ccc(C)cc2)CC(=O)N(C2CCCCC2)[C@@H]1c1ccc(CO)cc1"
  readout.number: -0.119
- molecule: "CO[C@]12C=C(Br)[C@@H](C[C@@H]1c1cccc(C)c1)[C@@]1(CO1)C2=O"
  readout.number: 0.0046
- molecule: "COCCCNC(=O)[C@@]1(Cc2ccccc2N=[N+]=[N-])COC(c2ccc(OCCCO)cc2)=N1"
  readout.number: 1.27

----------
# protocol.details: A549 cell viability effects, profiling panel, calcein-AM fluorescence, 48 h, basal (AID 1162); also: test concentration not given here
# setup.conditions: higher = more signal
Reported z-score values are given for each entry in this list.

- molecule: "[N-]=[N+]=NCc1ccccc1C[C@@]1(C(=O)N2CCOCC2)N=C(c2ccc(OCCCO)cc2)O[C@@H]1c1ccccc1"
  z-score: -1.99
- molecule: "CCOC(=O)C1=CC[C@@H](c2ccccc2C(F)(F)F)N(S(=O)(=O)c2ccc(C)cc2)[C@H]1c1ccc(C#N)cc1"
  z-score: -0.711
- molecule: "CC(c1ccccc1)C(O)C1C=CC2C(=O)N(c3ccccc3)C(=O)C2N1Nc1ccc([N+](=O)[O-])cc1 (stereo not drawn)"
  z-score: -0.898
- molecule: "CN(C)CCCNC(=O)[C@@H]1c2ccccc2C(=O)N(Cc2ccccc2Cl)[C@H]1c1ccc(CO)cc1"
  z-score: 0.904
- molecule: "[N-]=[N+]=NCc1ccccc1C[C@]1(C(N)=O)N=C(c2ccc(OCCCO)cc2)O[C@H]1c1ccccc1"
  z-score: -0.277
- molecule: "COC(=O)c1nc2oc1CC[C@@H](CO)NC(=O)N(C)Cc1cnnn1C[C@H](Cc1ccccc1)NC2=O"
  z-score: 0.0656
- molecule: "O=C1O[C@@H](c2ccccc2)[C@@H](c2ccccc2)N2[C@@H](c3ccccc3OCCO)[C@]3(C(=O)Nc4ccc(C#CCCO)cc43)[C@@H](C(=O)N3CCCCCCC3)[C@H]12"
  z-score: 0.22
- molecule: "CO[C@]12C=C(Br)[C@@H](C[C@@H]1c1cccc(C)c1)[C@@]1(CO1)C2=O"
  z-score: -0.406

----------
In this section, each of the compounds is paired with its reported composite z-score.
# system.tested: Calmodulin-1 (Homo sapiens)
# protocol.details: CALM1 binders on microarrays, EGTA buffer, profiling panel, biochemical, small-molecule microarray, Cy5-labelled CALM1 (AID 1111);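 also: labelled calmodulin applied in Tris saline Tween buffer holding calcium plus EGTA and DTT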
# setup.conditions: Cy5-CALM1 binding fluorescence, higher = more signal
attribute.measured: composite z-score

- compound: "COC(=O)c1c2oc(c1C(=O)OC)C(=O)N(C)Cc1cn(nn1)C[C@H](Cc1ccccc1)NC(=O)N[C@H](CO)CC2"
  result: -0.633
- compound: "C=C(COC)/C(=C/C[C@H](OC(=O)c1ccncc1)c1ccccc1OCCO)c1cnc2ccccc2c1"
  result: -0.158
- compound: "COc1ccc([Si](C)(C)[C@@H]2[C@@H](CC(=O)N3Cc4ccccc4C[C@H]3CO)O[C@]3(C(=O)N(C)c4ccccc43)[C@H]2C)cc1"
  result: 0.617
- compound: "C=CCC(OC(C)=O)[C@@H]1[C@@H](N(Cc2ccc(-c3ccccc3)cc2)C(=O)Cc2ccc(F)cc2)c2cc(OCCCO)ccc2N1C(=O)Cc1ccc(OC)cc1 (some centres undefined)"
  result: 0.498
